Molecular target: LMP7 (purified human immuno proteasome) (Homo sapiens, UniProt P20618+P28062)
Experiment: Determination of LMP7 activity (fluorescence intensity assay, Suc-LLVY-AMC)
Format: biochemical
Conditions: LMP7 versus Beta5, incubation for 20 minutes
Measurement label: Selectivity LMP7 vs Beta5

Compound | Meas value
O=C(N[C@@H](Cc1coc2ccccc12)B(O)O)[C@@H]1CCOC1 | ++++ (Selectivity ≥ 500)
O=C(N[C@@H](Cc1coc2ccccc12)B(O)O)C1COc2ccccc21 (some centres unmarked) | ++++ (Selectivity ≥ 500)
COc1cccc2occ(C[C@H](NC(=O)CSC)B(O)O)c12 | + (Selectivity <100)
CSCC(=O)NC(CC1COc2ccccc21)B(O)O (centres unmarked) | ++++ (Selectivity ≥ 500)
COCC(=O)N[C@@H](Cc1coc2ccccc12)B(O)O | + (Selectivity <100)
O=C(N[C@@H](Cc1coc2ccccc12)B(O)O)[C@H]1COCCO1 | + (Selectivity <100)

* * *

Biological target: LMP7 (purified human immuno proteasome) (Homo sapiens, UniProt P20618+P28062)
Experiment: Determination of LMP7 activity (fluorescence intensity assay, Suc-LLVY-AMC)
Format: biochemical
Settings: LMP7 versus Beta5, incubation for 20 minutes

Molecule | Selectivity LMP7 vs Beta5
O=C(N[C@@H](C[C@@H]1COc2ccccc21)B(O)O)[C@@H]1CCOC1 [Compound 41] | ++++ (Selectivity ≥ 500)
CSCC(=O)N[C@@H](CC1COc2c(C)cccc21)B(O)O (some centres unmarked) [Compound 10] | ++++ (Selectivity ≥ 500)
